System: MCF7
procedureSummary: Breast Cancer Cell Proliferation Assay (MCF-7), Cell Titer-Glo
Assay type: cell-based
assayContext: Homo sapiens, MCF7, 120 h, MCF7 cells, 5 days of compound exposure
propertyMeasured: IC50

compound	IC50
C[C@H](F)CN1CC(Nc2ccc([C@@H]3c4[nH]c5ccccc5c4C[C@@H](C)N3C34CC(C3)C4)cc2)C1 (single isomer, unassigned) [Compound 83]	≤ 25 nM
C[C@@H]1Cc2c([nH]c3ccccc23)[C@@H](c2c(F)cc(OCCN3CCCC3)cc2F)N1C12CC(C1)C2 [Compound 26]	≥ 250 nM

Entry under test: C[C@@H]1Cc2c([nH]c3ccccc23)[C@@H](c2ccc(NC3CN(CCCF)C3)cc2)N1C12CC(CF)(C1)C2 (single isomer, unassigned) [Compound 62] . Its IC50 was ≥ 250 nM
